target: NS3 protease (Hepacivirus C, UniProt C1KIQ2)
Sequence (C1KIQ2 whole entry): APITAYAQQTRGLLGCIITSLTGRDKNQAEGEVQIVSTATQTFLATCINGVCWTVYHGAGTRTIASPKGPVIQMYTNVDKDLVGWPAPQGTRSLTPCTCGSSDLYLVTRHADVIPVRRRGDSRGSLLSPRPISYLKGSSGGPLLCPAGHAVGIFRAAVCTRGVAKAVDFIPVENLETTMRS
measured.quantity: pIC50
Quick note: pIC50 values are minus log10 of concentrations in mol/L.

Task: // fetch NS3 protease (Hepacivirus C, UniProt C1KIQ2) pIC50 for `COc1ccc2c(O[C@@H]3C[C@H]4C(=O)N[C@]5(C(=O)O)C[C@H]5/C=C/CCCCC[C@H](NC(=O)OC5CCCC5)C(=O)N4C3)cc(-c3csc(NC(C)C)n3)cc2c1`
Output: 8.52

###

system: Thermus thermophilus; test: Antibacterial activity against Thermus thermophilus; format: functional, organism-based
measured.quantity: pIC50
Quick note: pIC50 values are minus log10 of concentrations in mol/L.

Task: Recorded pIC50 of `C/C(=C\C(=O)OCCCCCCCCC(=O)O)C[C@@H]1OC[C@H](C[C@@H]2O[C@H]2[C@@H](C)[C@H](C)O)[C@@H](O)[C@H]1O` , please.
Output: 6.05

###

Attribute: pIC50
assay: Inhibition of 20s constitutive proteasome beta-5c (unknown origin); set-up: species or system Homo sapiens
Quick note: pIC50 values are minus log10 of concentrations in mol/L.

1) CC(C)C[C@H](NC(=O)[C@H](CCc1ccccc1)NC(=O)CN1CCOCC1)C(=O)N[C@@H](Cc1ccccc1)C(=O)N[C@@H](CC(C)C)C(=O)[C@@]1(C)CO1    8.22

Below: the item to evaluate.
Task: Recorded pIC50 of `COC[C@H](NC(=O)c1cnc(C)s1)C(=O)N[C@@H](COC)C(=O)N[C@@H](Cc1ccccc1)C(=O)[C@@]1(C)CO1` , please.
Output: 7.44

###

test: Half life in Wistar rat at 10 mg/kg, iv measured for 24 hrs by LC-MS/MS analysis; format: ADME, organism-based; conditions: in vivo
measured.quantity: half-life

1. CC[C@@H]1C(=O)N(C)c2cnc(Nc3ccc(C(=O)N[C@H]4CC[C@H](N5CCN(CC6CC6)CC5)CC4)cc3OC)nc2N1C(C)C    > 110 h

Below: the item to evaluate.
Task: Recorded half-life of `CC[C@@H]1C(=O)N(C)c2cnc(Nc3ccc(C(=O)NC4CCN(C)CC4)cc3OC)nc2N1C1CCCC1` , please.
Output: < 50 h

###

biological target: NS3 protease (Hepacivirus C, UniProt C1KIQ2); experiment: Binding affinity to Hepatitis C virus genotype 1b NS3 protease assessed as inhibition constant; parameters: species or system Hepacivirus hominis
measured.quantity: Ki (nM)
Numeric only. Scale: nM

1. COc1ccc2c(O[C@@H]3C[C@H]4C(=O)N[C@]5(C(=O)NS(=O)(=O)C6CC6)C[C@H]5/C=C\CCCCN(C)C(=O)[C@@H]4C3)cc(-c3nc(C(C)C)cs3)nc2c1C    0.4

Below: the item to evaluate.
Task: // fetch NS3 protease (Hepacivirus C, UniProt C1KIQ2) Ki for `COc1ccc2c(O[C@@H]3C[C@H]4C(=O)N[C@]5(C(=O)O)C[C@H]5/C=C/CCCCC[C@H](NC(=O)OC5CCCC5)C(=O)N4C3)cc(-c3csc(NC(C)C)n3)cc2c1`
Output: 3

###

target: Vascular endothelial growth factor receptor 3 (Homo sapiens, UniProt P35916)
Sequence (P35916 whole entry): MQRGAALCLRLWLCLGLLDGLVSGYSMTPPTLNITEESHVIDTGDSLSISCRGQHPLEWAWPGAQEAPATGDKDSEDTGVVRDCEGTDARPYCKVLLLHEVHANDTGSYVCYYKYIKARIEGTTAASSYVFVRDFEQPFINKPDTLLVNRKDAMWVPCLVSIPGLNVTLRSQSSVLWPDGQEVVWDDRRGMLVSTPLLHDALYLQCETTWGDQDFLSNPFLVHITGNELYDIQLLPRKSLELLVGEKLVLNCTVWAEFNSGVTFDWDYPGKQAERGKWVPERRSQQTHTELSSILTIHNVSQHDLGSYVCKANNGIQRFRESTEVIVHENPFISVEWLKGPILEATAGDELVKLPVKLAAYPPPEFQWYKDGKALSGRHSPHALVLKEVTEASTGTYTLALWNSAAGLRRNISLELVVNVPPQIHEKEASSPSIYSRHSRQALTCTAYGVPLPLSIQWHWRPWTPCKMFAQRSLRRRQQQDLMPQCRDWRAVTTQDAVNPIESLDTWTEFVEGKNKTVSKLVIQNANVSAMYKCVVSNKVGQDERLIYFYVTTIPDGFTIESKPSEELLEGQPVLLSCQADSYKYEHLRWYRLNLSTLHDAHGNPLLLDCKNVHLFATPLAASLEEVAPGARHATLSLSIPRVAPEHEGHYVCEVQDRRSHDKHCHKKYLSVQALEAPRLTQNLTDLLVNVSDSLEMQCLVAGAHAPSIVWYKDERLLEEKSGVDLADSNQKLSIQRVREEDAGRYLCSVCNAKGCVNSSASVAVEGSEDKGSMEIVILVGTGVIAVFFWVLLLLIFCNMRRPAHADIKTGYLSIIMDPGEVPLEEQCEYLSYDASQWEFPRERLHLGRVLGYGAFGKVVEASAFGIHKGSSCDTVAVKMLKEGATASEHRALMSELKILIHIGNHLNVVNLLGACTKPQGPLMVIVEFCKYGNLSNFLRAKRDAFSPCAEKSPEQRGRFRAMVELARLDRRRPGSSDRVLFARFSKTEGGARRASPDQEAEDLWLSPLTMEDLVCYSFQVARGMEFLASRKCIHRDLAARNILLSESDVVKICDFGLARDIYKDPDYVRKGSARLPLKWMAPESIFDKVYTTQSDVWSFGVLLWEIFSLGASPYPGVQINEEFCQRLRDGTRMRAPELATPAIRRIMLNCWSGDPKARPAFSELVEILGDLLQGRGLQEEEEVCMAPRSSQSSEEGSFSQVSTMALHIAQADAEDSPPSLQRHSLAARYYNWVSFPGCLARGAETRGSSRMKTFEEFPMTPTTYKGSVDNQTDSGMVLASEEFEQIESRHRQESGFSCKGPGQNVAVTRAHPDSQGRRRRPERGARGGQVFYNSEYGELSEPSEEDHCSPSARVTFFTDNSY
measured.quantity: IC50 (nM)
Numeric only. Scale: nM

Task: Recorded IC50 of `COc1cc2nccc(Oc3ccc(NC(=O)NC4CC4)c(Cl)c3)c2cc1C(N)=O` , please.
Output: 2

###

biological target: NS3 protease (Hepacivirus C); assay: Binding affinity to Hepatitis C virus genotype 1a NS3 protease assessed as inhibition constant; design: species or system Hepacivirus hominis
Attribute: Ki
Numeric only. Scale: nM

1. COc1ccc2c(O[C@@H]3C[C@H]4C(=O)N[C@]5(C(=O)O)C[C@H]5/C=C/CCCCC[C@H](NC(=O)OC5CCCC5)C(=O)N4C3)cc(-c3csc(NC(C)C)n3)cc2c1    0.3

Task: Recorded Ki of `COc1ccc2c(O[C@@H]3C[C@H]4C(=O)N[C@]5(C(=O)NS(=O)(=O)C6CC6)C[C@H]5/C=C\CCCCN(C)C(=O)[C@@H]4C3)cc(-c3nc(C(C)C)cs3)nc2c1C` , please.
Output: 0.5

###

test: Inhibition of PDGFR (unknown origin); parameters: species or system Homo sapiens
measured.quantity: IC50

Task: Recorded IC50 of `COc1cc2nccc(Oc3ccc(NC(=O)NC4CC4)c(Cl)c3)c2cc1C(N)=O` , please.
Output: 29 nM

###

target: UniProtKB P17948; assay: Inhibition of VEGFR1 (unknown origin)
Sequence (P17948 whole entry): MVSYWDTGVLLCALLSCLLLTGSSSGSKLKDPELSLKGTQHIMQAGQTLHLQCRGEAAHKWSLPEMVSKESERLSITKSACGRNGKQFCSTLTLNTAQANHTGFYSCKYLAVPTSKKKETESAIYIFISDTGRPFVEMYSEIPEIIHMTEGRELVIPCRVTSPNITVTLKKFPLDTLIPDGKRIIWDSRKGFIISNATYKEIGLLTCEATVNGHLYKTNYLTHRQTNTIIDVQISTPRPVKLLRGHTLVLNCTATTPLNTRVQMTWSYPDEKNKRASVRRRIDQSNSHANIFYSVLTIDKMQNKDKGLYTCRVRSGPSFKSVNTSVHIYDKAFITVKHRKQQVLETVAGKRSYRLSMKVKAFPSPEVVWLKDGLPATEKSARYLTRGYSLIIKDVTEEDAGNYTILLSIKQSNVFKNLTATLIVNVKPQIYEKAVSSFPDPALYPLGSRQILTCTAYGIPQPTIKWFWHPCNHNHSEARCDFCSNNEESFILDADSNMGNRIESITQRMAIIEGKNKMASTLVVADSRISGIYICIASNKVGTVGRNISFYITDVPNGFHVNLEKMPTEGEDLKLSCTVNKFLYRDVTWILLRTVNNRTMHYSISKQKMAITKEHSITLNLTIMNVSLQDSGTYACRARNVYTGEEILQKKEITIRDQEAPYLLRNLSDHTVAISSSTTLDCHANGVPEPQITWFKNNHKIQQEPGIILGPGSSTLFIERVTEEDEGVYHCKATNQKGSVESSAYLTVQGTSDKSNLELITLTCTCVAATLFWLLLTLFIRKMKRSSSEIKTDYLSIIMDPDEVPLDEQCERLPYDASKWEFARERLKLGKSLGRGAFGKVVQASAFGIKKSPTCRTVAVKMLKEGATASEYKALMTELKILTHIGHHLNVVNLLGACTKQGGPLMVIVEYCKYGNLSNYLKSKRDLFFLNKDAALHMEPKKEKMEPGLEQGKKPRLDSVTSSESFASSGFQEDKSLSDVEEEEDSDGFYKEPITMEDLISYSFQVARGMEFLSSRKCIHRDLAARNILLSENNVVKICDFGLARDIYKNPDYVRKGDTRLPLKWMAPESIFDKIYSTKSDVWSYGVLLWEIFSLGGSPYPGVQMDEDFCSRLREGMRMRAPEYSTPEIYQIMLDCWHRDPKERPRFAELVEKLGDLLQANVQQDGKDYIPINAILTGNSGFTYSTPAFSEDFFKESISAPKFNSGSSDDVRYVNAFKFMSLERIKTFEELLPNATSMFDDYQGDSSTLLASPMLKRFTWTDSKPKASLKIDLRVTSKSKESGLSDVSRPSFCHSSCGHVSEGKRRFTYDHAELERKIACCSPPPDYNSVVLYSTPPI
measured.quantity: pIC50
Quick note: pIC50 values are minus log10 of concentrations in mol/L.

Task: Recorded pIC50 of COc1cc2nccc(Oc3ccc(NC(=O)NC4CC4)c(Cl)c3)c2cc1C(N)=O [LENVATINIB] , please.
Output: 8.70

###

molecular target: Tubulin; test: Inhibition of tubulin polymerization (unknown origin)
measured.quantity: pIC50
Quick note: pIC50 values are minus log10 of concentrations in mol/L.

Task: Recorded pIC50 of `C/C(=C\c1csc(C)n1)[C@@H]1C[C@@H]2O[C@]2(C)CCC[C@H](C)[C@H](O)[C@@H](C)C(=O)C(C)(C)[C@@H](O)CC(=O)O1` , please.
Output: 8.74
